Test: Rate constant (k) of clearance from isolated perfused rat liver (IPRL)
Assay type: ADME
Assign class by k el: not lower than 0.0005 s⁻¹ means fulfilled; lower than 0.0005 s⁻¹ means not fulfilled.

Answered examples (2):
compound: O=C(Nc1ccc(C[C@H](/N=c2\c(O)c(O)\c2=N/Cc2ccccc2)C(=O)O)cc1)c1c(Cl)cncc1Cl
classLabel: fulfilled

compound: CCCCN(CCCC)c1c(N[C@@H](Cc2ccc(NC(=O)c3c(Cl)cncc3Cl)cc2)C(=O)O)c(=O)c1=O
classLabel: fulfilled

## Input I'd appreciate it if you could say whether `CCCCC/N=c1\c(O)c(O)\c1=N/[C@@H](Cc1ccc(NC(=O)c2c(Cl)cncc2Cl)cc1)C(=O)O` has k el at least equal to 0.0005 s⁻¹.
## Output not fulfilled

## Input Dear colleague, could you confirm whether `CN(C)c1c(N[C@@H](Cc2ccc(NC(=O)c3c(Cl)cncc3Cl)cc2)C(=O)O)c(=O)c1=O` has k el at or above 0.0005 s⁻¹?
## Output fulfilled

## Input Given the entry CCCC(C)/N=c1\c(O)c(O)\c1=N/[C@@H](Cc1ccc(NC(=O)c2c(Cl)cncc2Cl)cc1)C(=O)O (some centres undefined) , answer whether its k el meets or surpasses 0.0005 s⁻¹.
## Output fulfilled

## Input # bool: k el of `CCN1CCN(c2c(N[C@@H](Cc3ccc(NC(=O)c4c(Cl)cncc4Cl)cc3)C(=O)O)c(=O)c2=O)CC1` >= 0.0005 s⁻¹
## Output fulfilled

## Input # check: k el of `O=C(Nc1ccc(C[C@H](/N=c2\c(O)c(O)\c2=N/CCCC(F)(F)F)C(=O)O)cc1)c1c(Cl)cncc1Cl` is greater than or equal to 0.0005 s⁻¹
## Output not fulfilled

## Input In plain terms: is recorded k el at least 0.0005 s⁻¹ for `O=C(Nc1ccc(C[C@H](/N=c2\c(O)c(O)\c2=N/C2CCC2)C(=O)O)cc1)c1c(Cl)cncc1Cl` ?
## Output not fulfilled

## Input Could you verify whether the entry `CCC/N=c1\c(O)c(O)\c1=N/[C@@H](Cc1ccc(NC(=O)c2c(Cl)cncc2Cl)cc1)C(=O)O` shows k el of no less than 0.0005 s⁻¹?
## Output not fulfilled

## Input API: above_or_equal(metric=k el, cutoff=0.0005 s⁻¹) for item `O=C(Nc1ccc(C[C@H](/N=c2\c(O)c(O)\c2=N/C2CCCC2)C(=O)O)cc1)c1c(Cl)cncc1Cl`
## Output not fulfilled

## Input hey, is k el for this one >= 0.0005 s⁻¹? `C/N=c1\c(O)c(O)\c1=N/[C@@H](Cc1ccc(NC(=O)c2c(Cl)cncc2Cl)cc1)C(=O)O`
## Output not fulfilled
